Record set of IC50 for target or system 6×His-CRBN-DDB1 protein (Homo sapiens (Human)).

Study these solved cases before continuing.
Request: IC50, test system 6×His-CRBN-DDB1 protein (Homo sapiens (Human)), entry O=C1CCC(N2Cc3cc(NC(=O)c4ccc(C(F)(F)F)cc4)ccc3C2=O)C(=O)N1 (centres unmarked) [Compound 15] < 1 µM

Request: IC50, test system 6×His-CRBN-DDB1 protein (Homo sapiens (Human)), entry N#Cc1cccc(C(=O)Nc2ccc3c(c2)CN(C2CCC(=O)NC2=O)C3=O)c1 (centres unmarked) [Compound 9] < 1 µM

***
Request: IC50, test system 6×His-CRBN-DDB1 protein (Homo sapiens (Human)), entry COCCOc1cccc(C(=O)Nc2ccc3c(c2)CN(C2CCC(=O)NC2=O)C3=O)c1 (centres unmarked) [Compound 53] 1 to 10 µM

Request: IC50, test system 6×His-CRBN-DDB1 protein (Homo sapiens (Human)), entry Cc1cccc(C(=O)Nc2ccc3c(c2)CN(C2CCC(=O)NC2=O)C3=O)n1 (centres unmarked) [Compound 35] 1 to 10 µM
